The measured values listed here are drawn from patent US9763939B2.

protocol-summary: Absolute bioavailability
condition-parameters: in vivo; species not given
measured-parameter: bioavailability

Q: Recall and state the measured bioavailability for Cc1ccc2c(c1)c1c3n2CCNC3CCC1 (stereo not shown) .
Result: 20 to 30%

* * *

protocol-summary: in vivo
condition-parameters: rat, po
measured-parameter: LD50

Q: Recall and state the measured LD50 for Cc1ccc2c(c1)c1c3n2CCNC3CCC1 (stereo not shown) .
Result: 2000 to 5000 mg/kg

* * *

protocol-summary: in vivo
condition-parameters: mouse, iv
measured-parameter: LD50

Q: Recall and state the measured LD50 for Cc1ccc2c(c1)c1c3n2CCNC3CCC1 (stereo not shown) .
Result: 70 to 80 mg/kg
